- Tested on: Plasmodium falciparum
- assay info: Antiplasmodial activity against drug resistant Plasmodium falciparum 7G8 by [3H]hypoxanthine incorporation assay
- Type: functional, organism-based
Provide the recorded pEC50 for the entries that follow.
One number for each entry, as −log10 of the molar value.

[[record]]
compound_smiles = "O=C(NCCN1CCCC1)c1cc(NCCC2CCOCC2)nc2ccc(Cl)cc12"
experimental_target = "Plasmodium falciparum"
endpoint_name = "pEC50"
val = 9.15


Let's switch to this compound now.
Recorded pEC50 for "O=C(NCCN1CCCC1)c1cc(-c2ccc(CN3CCOCC3)cc2)nc2ccc(F)cc12" , please?
9.40

* * *

- assay info: Oral bioavailability in Sprague-Dawley rat at 3 mg/kg administered via gavage by UPLC-MS/MS analysis
- Assay type: ADME, organism-based
- assay conditions: in vivo
Would you kindly list bioavailability for each of these molecules?
Answers are plain numbers, in %.

[[record]]
molecule = "O=C(NCCN1CCCC1)c1cc(-c2ccc(CN3CCOCC3)cc2F)nc2ccc(F)cc12"
units_of_measure = "%"
val = 33


Lab note: next molecule to report on.
Form field: reported bioavailability of O=C(NCCN1CCCC1)c1cc(-c2ccc(CN3CCOCC3)cc2)nc2ccc(F)cc12 [CABAMIQUINE]
84
